Reported % inhibition, CRE‐SPAP (with forskolin) by item:
System under test: human α2C‐adrenoceptor (Homo sapiens)
Test parameters: CHO‐α2C cells, % inhibition from the 3 μM forskolin control, mean ± SEM
Property: % inhibition, CRE‐SPAP (with forskolin) (%)

1) Cc1sc(C)c2c1CCC=C2c1cnc[nH]1.O=C(O)/C=C\C(=O)O [T‐CG 1000] : 50.2
2) CCc1cccc(CC)c1NC1=NCCN1 [ST‐91] : 76.5
3) NC[C@H](O)c1ccc(O)c(O)c1 [Noradrenaline] : 83.0

* * *

System under test: human α2C‐adrenoceptor (Homo sapiens, UniProt P18825)
Sequence (P18825 whole entry): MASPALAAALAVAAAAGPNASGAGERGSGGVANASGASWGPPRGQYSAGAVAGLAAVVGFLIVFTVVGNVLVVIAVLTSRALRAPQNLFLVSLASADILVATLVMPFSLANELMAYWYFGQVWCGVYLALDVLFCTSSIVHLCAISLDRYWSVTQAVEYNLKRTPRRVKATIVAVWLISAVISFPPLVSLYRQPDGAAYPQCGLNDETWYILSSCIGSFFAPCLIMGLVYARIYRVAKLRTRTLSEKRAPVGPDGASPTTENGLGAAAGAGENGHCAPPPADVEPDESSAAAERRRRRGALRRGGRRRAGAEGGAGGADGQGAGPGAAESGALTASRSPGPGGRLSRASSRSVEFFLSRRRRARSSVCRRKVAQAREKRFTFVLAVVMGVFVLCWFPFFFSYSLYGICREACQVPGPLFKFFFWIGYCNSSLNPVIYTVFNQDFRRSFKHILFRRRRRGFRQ
Test parameters: CHO‐α2C cells, inhibition of 3 μM forskolin‐stimulated CRE‐SPAP production; given as negative log IC50, mean ± SEM
Reported Log IC50 (Gi), CRE‐SPAP (with forskolin) by item:
Property: Log IC50 (Gi), CRE‐SPAP (with forskolin)

1) Cc1sc(C)c2c1CCC=C2c1cnc[nH]1.O=C(O)/C=C\C(=O)O : −6.12 ± 0.05
2) C1=C(c2cnc[nH]2)c2ccsc2CC1 : −6.47 ± 0.10
3) CCc1cccc(CC)c1NC1=NCCN1 : −7.46 ± 0.09
4) CS(=O)(=O)Nc1c(O)ccc2c1CCCC2C1=NCCN1 (centres unmarked) : −6.68 ± 0.09
5) CCN1CCc2nc(N)oc2CC1 : −5.94 ± 0.08

* * *

System under test: UniProt:P08913
Test parameters: Log IC50 (Gi), CRE-SPAP (with forskolin), CHO-α2A cell line 3, expression 121 fmol/mg protein, 3 μM forskolin
Property: IC50 (nM)

1. c1ccc2c(CC3=NCCN3)cccc2c1 : 417

* * *

System under test: human α2C‐adrenoceptor (Homo sapiens)
Test parameters: Log IC50 (Gi), CRE‐SPAP (with forskolin)
pIC50: −log10 of the molar value.
Property: pIC50

1) Cc1cccc([C@H](C)c2cnc[nH]2)c1C : 9.16
2) Cc1cccc(C(C)c2cnc[nH]2)c1C (centres unmarked) : 9.29

* * *

System under test: human α2C‐adrenoceptor (Homo sapiens)
Protocol summary: 3H‐rauwolscine whole cell binding in CHO‐α2C cells
Design: expressed in transfected cells; host or cells: CHO-K1 with CRE-SPAP reporter
Test parameters: fold, from KD values; 1 = no selectivity
Property: Selectivity ratio α2B vs α2C (higher affinity for α2C)

1. c1ccc2c(c1)CCCC2C1=NCCN1 (stereo not shown) [Tetrahydrozoline] : 6.6
2. c1ccc(C2CC2)c(OCC2=NCCN2)c1 : 7.9
3. c1ccc2c(CC3=NCCN3)cccc2c1 : 4.0
4. C1COC(NC(C2CC2)C2CC2)=N1 : 2.6
5. COc1ccc(OC)c(C(O)C(C)N)c1 (stereo not shown) : 2.1
6. CCNCC(O)c1cccc(O)c1 (stereo not shown) : 3.4
7. C[C@H](N)[C@H](O)c1cccc(O)c1 : 2.7

* * *

Reported pKd by item:
System under test: human α2A‐adrenoceptor (Homo sapiens, UniProt P08913)
Sequence (P08913 whole entry): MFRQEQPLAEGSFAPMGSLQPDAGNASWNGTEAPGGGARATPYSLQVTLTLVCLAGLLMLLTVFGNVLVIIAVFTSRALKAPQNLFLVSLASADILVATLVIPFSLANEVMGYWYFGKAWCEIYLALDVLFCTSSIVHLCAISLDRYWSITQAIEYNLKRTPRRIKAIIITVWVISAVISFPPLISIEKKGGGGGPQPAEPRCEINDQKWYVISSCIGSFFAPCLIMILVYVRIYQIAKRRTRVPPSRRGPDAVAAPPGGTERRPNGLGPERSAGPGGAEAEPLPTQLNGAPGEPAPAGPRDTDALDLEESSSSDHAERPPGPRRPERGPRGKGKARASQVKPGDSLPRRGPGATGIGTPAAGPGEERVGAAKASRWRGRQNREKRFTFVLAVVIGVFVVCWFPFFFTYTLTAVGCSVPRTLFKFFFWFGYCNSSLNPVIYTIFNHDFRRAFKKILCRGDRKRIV
Protocol summary: 3H‐rauwolscine whole cell binding in CHO‐α2A cells
Design: expressed in transfected cells; host or cells: CHO-K1 with CRE-SPAP reporter
Test parameters: Log KD, CHO‐α2A
pKd: −log10 of the molar value.
Property: pKd

1. CN[C@@H](C)[C@H](O)c1ccccc1 : 4.46
2. Cc1cc(C(C)(C)C)cc(C)c1CC1=NCCN1 : 7.62
3. Cc1cccc(C)c1N=C1NCCCS1 : 4.94
